Reference source: PubChem BioAssay AID2060890

Tested on: LG0703-F948-PDC complex spheroid viability;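 further: spheroids exposed to agents for 7 days; 100% = DMSO vehicle wells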
Assay: Anticancer human tumor LG0703-F948-PDC patient-derived lung adenocarcinoma cell line growth inhibition [RAS]
Settings: second compound 1 µM; first compound 3.16 µM; stronger effect = lower value
So I've got a bunch of compounds here, and I need their viability, T/C values.
Numbers only, in %.

For every record below, what is its viability, T/C?
1. CCC(CC)c1cc(NC2CCC(N)C2)n2nccc2n1 (centres undefined) + C#Cc1c(F)ccc2cc(O)cc(-c3ncc4c(N5CC6CCC(C5)N6)nc(OCC56CCCN5CC(F)C6)nc4c3F)c12
2. CC(Nc1ccc2c(c1)OCCn1cc(N3C(=O)OCC3C(F)F)nc1-2)C(N)=O (centres undefined) + C#Cc1c(F)ccc2cc(O)cc(-c3ncc4c(N5CC6CCC(C5)N6)nc(OCC56CCCN5CC(F)C6)nc4c3F)c12

[2.65, 17.6]
